- assayed_target: YTH domain-containing family protein 2 (Homo sapiens, UniProt Q9Y5A9)
- Sequence (Q9Y5A9 whole entry, the tested form may be a part): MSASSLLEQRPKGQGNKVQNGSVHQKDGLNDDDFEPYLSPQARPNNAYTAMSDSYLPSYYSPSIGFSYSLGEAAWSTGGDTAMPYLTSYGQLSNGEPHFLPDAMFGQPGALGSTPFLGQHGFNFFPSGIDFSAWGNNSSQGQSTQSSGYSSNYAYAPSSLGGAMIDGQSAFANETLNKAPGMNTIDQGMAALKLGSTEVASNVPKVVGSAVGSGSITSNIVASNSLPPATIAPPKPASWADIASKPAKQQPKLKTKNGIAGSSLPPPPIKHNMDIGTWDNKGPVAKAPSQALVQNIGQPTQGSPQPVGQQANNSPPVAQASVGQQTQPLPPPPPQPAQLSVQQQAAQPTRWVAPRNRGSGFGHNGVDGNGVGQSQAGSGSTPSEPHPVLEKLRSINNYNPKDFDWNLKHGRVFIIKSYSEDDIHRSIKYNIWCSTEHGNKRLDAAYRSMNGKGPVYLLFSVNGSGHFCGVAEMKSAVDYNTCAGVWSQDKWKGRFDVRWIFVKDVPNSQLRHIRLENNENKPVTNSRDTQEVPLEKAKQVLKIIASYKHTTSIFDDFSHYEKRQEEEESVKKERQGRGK
- assay_protocol: Inhibition of YTHDF2 YTH domain (unknown origin) (383 to 579 residues) expressed as Escherichia coli BL21 (DE3) Rosetta cells by HTFR based binding assay
Items are presented alongside their recorded pIC50.
Answer as the number alone; pIC50 is minus log10 of concentration in mol/L.

# smiles, pIC50
rows = [
    ("Cn1c(=O)cc(C2CC2)[nH]c1=O", 3.79),
    ("CNc1ncnc2c(C)[nH]nc12", 3.76),
]

Now look at this one.
Task item: Please report pIC50 for the following molecule: O=c1cc(C2CC2)[nH]c(=O)[nH]1
Reply: 3.39

Sourced from ChEMBL document CHEMBL5325457
